# Test system: MS2 coat protein
# measurement_description: apparent KD of MS2 coat protein; designed switch direction (-1 OFF switch, 1 ON switch): -1; higher = weaker reporter binding
# assay_context: input ligand: FMN 200 uM
Outcome: Met for apparent KD of MS2 coat protein of at least 200 nM; Not met for anything lower.

Example cases with answers are listed next.
• CCAAGCUUUUUCAUUAACAACAUGAGGAUCACCCAUGUUUAAGCUAUUACUUUUGGGCUCUUUAGUGCUAGUCUUAU [JR_STOV1_Sub039] (Eterna round: R97, puzzle: Sensor, turn-off variant 1) = Not met
• UGAGAGCAAGGAUAUACGUUGGUGUAUACCCGGGUAUGUAUACAUGAGGAUCACCCAUGUAGAAGGUGCACAAA [EX2 B.1] (Eterna round: R97, puzzle: Exclusion 2) = Not met
• ACAUGAGGAUCACCCAUGUCCGGCUGGUCUGUUCCGGUUGUCGAGGAUAUAGUUCGGUGUUCGCGCUAGAAGGUGGGAGCUGGA [Aenatbe mod 54] (Eterna round: R96, puzzle: Exclusion NG 3) = Not met

Q: Tell me whether apparent KD of MS2 coat protein is at least 200 nM here: CUCUAGUCAGGAUAUUAGUUGCCACCUGGACACAGGCGGCAUGAGAAGGGACUUGAGGAUCACCCAAGUAAAAG [Quaesbe] (Eterna round: R97, puzzle: Exclusion 4)
Ans: Met

Q: Tell me whether apparent KD of MS2 coat protein is at least 200 nM here: GUCAUCAAACAUGGGAUCAACAUGAGGAUCACCCAUGUUGACAAGUUUUUUGCUCGUCUUAUAAUACGUUUGAUGAC [Mod-Jx] (Eterna round: R97, puzzle: Sensor, turn-off variant 1)
Ans: Not met

These entries and their values trace back to the supplement of paper PMC9170038.
